The measured values listed here are drawn from ChEMBL document CHEMBL1122984.

- measurement.target: Metallo-beta-lactamase type 2 (Bacteroides fragilis)
- experiment.summary: Minimum protective concentration used to protect the compound against Bacteroides fragilis A-22,695 beta-lactamase catalyzed hydrolysis
Catalogue of MPC values

- molecule: "C[C@]1(CO)[C@H](C(=O)O)N2C(=O)CC2S1(=O)=O (some centres undefined)"
  MPC [µg/mL]: 100
- molecule: "O=C(O)[C@H]1/C(=C/CO)O[C@@H]2CC(=O)N21"
  MPC [µg/mL]: 63
- molecule: "C[C@]1(CCl)[C@H](C(=O)O)N2C(=O)CC2S1(=O)=O (some centres undefined)"
  MPC [µg/mL]: 12.5
- molecule: "C[C@]1(CBr)[C@H](C(=O)O)N2C(=O)CC2S1(=O)=O (some centres undefined)"
  MPC [µg/mL]: 12.5
